- Tested on: Escherichia coli TOP10
- assayProcedure: shrunken log2 fold change of peptide-encoding DNA abundance (4.5 h post-induction vs induction); higher = less antimicrobial activity (less host growth inhibition)
- cond: time post-induction: 4.5 h; library: site-saturation at positions 5, 18, 19, 20
measurementLabel: shrunken log2 fold change
One number for each entry.

[[record]]
residuesequence = "RRIRFRPPRLPRPRPRPHHNPRP"
measurementlabel = "shrunken log2 fold change"
measurednumber = -0.754

[[record]]
residuesequence = "RRIRERPPRLPRPRPRPYAAPRP"
measurementlabel = "shrunken log2 fold change"
measurednumber = -0.368

[[record]]
residuesequence = "RRIRMRPPRLPRPRPRPKMGPRP"
measurementlabel = "shrunken log2 fold change"
measurednumber = -0.00235

[[record]]
residuesequence = "RRIRIRPPRLPRPRPRPRHCPRP"
measurementlabel = "shrunken log2 fold change"
measurednumber = 0.0849

[[record]]
residuesequence = "RRIRDRPPRLPRPRPRPPLQPRP"
measurementlabel = "shrunken log2 fold change"
measurednumber = 0.414

[[record]]
residuesequence = "RRIRSRPPRLPRPRPRPMPRPRP"
measurementlabel = "shrunken log2 fold change"
measurednumber = 0.346

[[record]]
residuesequence = "RRIRLRPPRLPRPRPRPFMIPRP"
measurementlabel = "shrunken log2 fold change"
measurednumber = -0.186

[[record]]
residuesequence = "RRIRGRPPRLPRPRPRPCHEPRP"
measurementlabel = "shrunken log2 fold change"
measurednumber = 0.492

[[record]]
residuesequence = "RRIRGRPPRLPRPRPRPCLSPRP"
measurementlabel = "shrunken log2 fold change"
measurednumber = 0.0424

[[record]]
residuesequence = "RRIRSRPPRLPRPRPRPLTMPRP"
measurementlabel = "shrunken log2 fold change"
measurednumber = -0.242


Provide shrunken log2 fold change values for the following items, in order.
1. RRIRTRPPRLPRPRPRPRTKPRP
2. RRIRNRPPRLPRPRPRPPTKPRP
3. RRIRMRPPRLPRPRPRPKWWPRP

[0.74, 0.46, 0.755]

Provide shrunken log2 fold change values for the following items, in order.
1. RRIRARPPRLPRPRPRPEHCPRP
2. RRIRWRPPRLPRPRPRPGMAPRP
3. RRIRWRPPRLPRPRPRPFPRPRP
4. RRIRSRPPRLPRPRPRPKGDPRP

1: 0.0263; 2: 0.627; 3: 0.111; 4: -0.011

* * *

- Tested on: Escherichia coli TOP10
- assayProcedure: shrunken log2 fold change of peptide-encoding DNA abundance (4.5 h post-induction vs induction); higher = less antimicrobial activity (less host growth inhibition)
- cond: time post-induction: 4.5 h; library: site-saturation at positions 5, 18, 19, 20
Threshold check on shrunken log2 fold change: at or above 0.02 gives true (1), strictly below gives false (0).

Previously resolved entries follow.
[[record]]
residuesequence = "RRIRSRPPRLPRPRPRPNNTPRP"
assayedtarget = "Escherichia coli TOP10"
group = "false (0)"

[[record]]
residuesequence = "RRIRIRPPRLPRPRPRPKNLPRP"
assayedtarget = "Escherichia coli TOP10"
group = "false (0)"

[[record]]
residuesequence = "RRIRHRPPRLPRPRPRPQNGPRP"
assayedtarget = "Escherichia coli TOP10"
group = "false (0)"

[[record]]
residuesequence = "RRIRFRPPRLPRPRPRPQVRPRP"
assayedtarget = "Escherichia coli TOP10"
group = "true (1)"


Could you please find out whether RRIRYRPPRLPRPRPRPSCHPRP has shrunken log2 fold change that meets 0.02 or exceeds it?
false (0)

Could you please find out whether RRIRKRPPRLPRPRPRPKFIPRP has shrunken log2 fold change that meets 0.02 or exceeds it?
false (0)

Could you please find out whether RRIRGRPPRLPRPRPRPSTNPRP has shrunken log2 fold change that meets 0.02 or exceeds it?
true (1)

Could you please find out whether RRIRARPPRLPRPRPRPLFIPRP has shrunken log2 fold change that meets 0.02 or exceeds it?
false (0)

Could you please find out whether RRIRFRPPRLPRPRPRPARHPRP has shrunken log2 fold change that meets 0.02 or exceeds it?
true (1)

Could you please find out whether RRIRFRPPRLPRPRPRPIYSPRP has shrunken log2 fold change that meets 0.02 or exceeds it?
false (0)

Could you please find out whether RRIRHRPPRLPRPRPRPNWTPRP has shrunken log2 fold change that meets 0.02 or exceeds it?
false (0)

Could you please find out whether RRIRWRPPRLPRPRPRPTIGPRP has shrunken log2 fold change that meets 0.02 or exceeds it?
true (1)

* * *

- Test system: Escherichia coli TOP10
- assayProcedure: shrunken log2 fold change of peptide-encoding DNA abundance (4.5 h post-induction vs induction); higher = less antimicrobial activity (less host growth inhibition)
- cond: time post-induction: 4.5 h; library: site-saturation at positions 5, 18, 19, 20
For each record, write down the corresponding shrunken log2 fold change.
Numbers only.

[[record]]
residuesequence = "RRIRKRPPRLPRPRPRPEIVPRP"
assayedtarget = "Escherichia coli TOP10"
measurednumber = 1.08

[[record]]
residuesequence = "RRIRWRPPRLPRPRPRPFALPRP"
assayedtarget = "Escherichia coli TOP10"
measurednumber = -0.129


Provide shrunken log2 fold change values for the following items, in order.
1. RRIRCRPPRLPRPRPRPGFVPRP
2. RRIRDRPPRLPRPRPRPFQGPRP
3. RRIRLRPPRLPRPRPRPHGPPRP

[0.528, -0.181, 0.101]

Provide shrunken log2 fold change values for the following items, in order.
1. RRIRLRPPRLPRPRPRPDIAPRP
2. RRIRRRPPRLPRPRPRPFGEPRP
3. RRIRRRPPRLPRPRPRPGREPRP
4. RRIRHRPPRLPRPRPRPLVIPRP
5. RRIRNRPPRLPRPRPRPGRKPRP
6. RRIRDRPPRLPRPRPRPAHEPRP
7. RRIRERPPRLPRPRPRPFWDPRP
8. RRIRMRPPRLPRPRPRPRTEPRP

1: 0.024; 2: 0.412; 3: -0.0226; 4: -0.343; 5: 0.132; 6: -0.0156; 7: 0.029; 8: 0.718

Provide shrunken log2 fold change values for the following items, in order.
1. RRIRCRPPRLPRPRPRPFYRPRP
2. RRIRFRPPRLPRPRPRPIEMPRP
3. RRIRQRPPRLPRPRPRPRELPRP
4. RRIRPRPPRLPRPRPRPEPKPRP
5. RRIRVRPPRLPRPRPRPDPIPRP
6. RRIRGRPPRLPRPRPRPRTHPRP
7. RRIRNRPPRLPRPRPRPMVPPRP

1: -0.313; 2: -0.245; 3: 0.0285; 4: 2.44; 5: -0.00485; 6: 0.666; 7: 0.0885

* * *

For each record, write down the corresponding shrunken log2 fold change.
- Test system: Escherichia coli TOP10
- assayProcedure: shrunken log2 fold change of peptide-encoding DNA abundance (4.5 h post-induction vs induction); higher = less antimicrobial activity (less host growth inhibition)
- cond: time post-induction: 4.5 h; library: site-saturation at positions 5, 18, 19, 20
Answers are plain numbers.

Solved cases below.
[[record]]
residuesequence = "RRIRDRPPRLPRPRPRPKFMPRP"
assayedtarget = "Escherichia coli TOP10"
measurednumber = -0.191

[[record]]
residuesequence = "RRIRQRPPRLPRPRPRPGGWPRP"
assayedtarget = "Escherichia coli TOP10"
measurednumber = 0.45

[[record]]
residuesequence = "RRIRERPPRLPRPRPRPQCAPRP"
assayedtarget = "Escherichia coli TOP10"
measurednumber = 0.0306

[[record]]
residuesequence = "RRIRMRPPRLPRPRPRPMPNPRP"
assayedtarget = "Escherichia coli TOP10"
measurednumber = 0.154

[[record]]
residuesequence = "RRIRIRPPRLPRPRPRPWYTPRP"
assayedtarget = "Escherichia coli TOP10"
measurednumber = -0.122


Provide shrunken log2 fold change values for the following items, in order.
1. RRIRIRPPRLPRPRPRPDDNPRP
2. RRIRPRPPRLPRPRPRPPVRPRP

-0.27
0.353

* * *

- Test system: Escherichia coli TOP10;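 further: peptides expressed intracellularly from a pBAD plasmid library in pooled LB shake-flask culture, induced with 0.3% L-arabinose, DNA abundance read by NGS, three biological replicates, DESeq2 with apeglm shrinkage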
- assayProcedure: shrunken log2 fold change of peptide-encoding DNA abundance (4.5 h post-induction vs induction); higher = less antimicrobial activity (less host growth inhibition)
- cond: time post-induction: 4.5 h; library: site-saturation at positions 5, 18, 19, 20
For each record, write down the corresponding shrunken log2 fold change.
Give bare numbers.

Solved cases below.
[[record]]
residuesequence = "RRIRQRPPRLPRPRPRPQISPRP"
assayedtarget = "Escherichia coli TOP10"
measurednumber = -0.159

[[record]]
residuesequence = "RRIRGRPPRLPRPRPRPLLLPRP"
assayedtarget = "Escherichia coli TOP10"
measurednumber = 0.607

[[record]]
residuesequence = "RRIRPRPPRLPRPRPRPVPEPRP"
assayedtarget = "Escherichia coli TOP10"
measurednumber = 0.0758

[[record]]
residuesequence = "RRIRFRPPRLPRPRPRPSLRPRP"
assayedtarget = "Escherichia coli TOP10"
measurednumber = -0.262

[[record]]
residuesequence = "RRIRWRPPRLPRPRPRPNVFPRP"
assayedtarget = "Escherichia coli TOP10"
measurednumber = -0.304

[[record]]
residuesequence = "RRIRHRPPRLPRPRPRPIMQPRP"
assayedtarget = "Escherichia coli TOP10"
measurednumber = -0.228

[[record]]
residuesequence = "RRIRKRPPRLPRPRPRPTFQPRP"
assayedtarget = "Escherichia coli TOP10"
measurednumber = 0.05

[[record]]
residuesequence = "RRIRVRPPRLPRPRPRPGYGPRP"
assayedtarget = "Escherichia coli TOP10"
measurednumber = 0.0756


Provide shrunken log2 fold change values for the following items, in order.
1. RRIRQRPPRLPRPRPRPHLDPRP
2. RRIRARPPRLPRPRPRPPDMPRP

1: -0.0359; 2: 0.778
